- target-or-test-system: Cyclin-dependent kinase 2 (Homo sapiens) (UniProt P24941);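 note: mean inhibition measured against the CDK2/cyclin E complex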
- condition-description: at 1 µM
# binarize inhibition: threshold 4% inclusive, high side MET, low side NOT MET

COc1cc(N2CCN(C(C)C)CC2)ccc1Nc1nc(Nc2cccc(F)c2C(=O)O)c2cc[nH]c2n1 | MET
N#Cc1ccc2c(-c3ccnc(NC4CC4)n3)c(-c3ccc(F)cc3)nn2c1 | NOT MET
COc1cccc(-n2ncc3c(N/N=C/c4ccc(C(=O)NCCN(C)C)cc4)ncnc32)c1 | MET

Please tell me: is the compound Fc1cccc(COc2ccc(Nc3ncncc3C#Cc3ccccc3)cc2Cl)c1 at or over 4% in terms of inhibition? MET

Please tell me: is the compound CC1=C(C(=O)Nc2ccc3[nH]ncc3c2)C(c2ccc(F)cc2)N=C(c2ccc(C(F)(F)F)nc2)N1 (stereo not given) at or over 4% in terms of inhibition? NOT MET

Please tell me: is the compound c1ccc(-c2n[nH]cc2-c2ccnc(-c3ccc(OCCn4ccnc4)cc3)c2)nc1 at or over 4% in terms of inhibition? MET

Please tell me: is the compound O=C(O[C@H]1CN[C@H](C#Cc2cc3ncnc(Nc4ccc5c(cnn5Cc5ccccc5)c4)c3s2)C1)N1CCOCC1 at or over 4% in terms of inhibition? NOT MET

Please tell me: is the compound COc1ccc(Nc2ncc(-c3ccccc3)o2)cc1OC at or over 4% in terms of inhibition? MET

Please tell me: is the compound COc1cc(N2CCN(C(C)C)CC2)ccc1Nc1nc(Nc2cccc3ncccc23)c2cc[nH]c2n1 at or over 4% in terms of inhibition? MET

Please tell me: is the compound Cc1c2ccc(N(C)c3ccnc(Nc4cccc(S(N)(=O)=O)c4)n3)cc2nn1C at or over 4% in terms of inhibition? MET

Please tell me: is the compound c1cnn2ncc(-c3ccnc(NCCCN4CCOCC4)n3)c2c1 at or over 4% in terms of inhibition? MET

Please tell me: is the compound CN(c1ccc(NC(=O)NCCN2CCOCC2)cc1)c1ccnc(Nc2ccc(CS(C)(=O)=O)cc2)n1 at or over 4% in terms of inhibition? MET

Please tell me: is the compound CN(C)CCNC(=O)Nc1ccc(N(C)c2ccnc(Nc3ccc(CS(C)(=O)=O)cc3)n2)cc1 at or over 4% in terms of inhibition? MET

Please tell me: is the compound O=C(Nc1n[nH]c2nnc(-c3cccnc3)cc12)C1CC1 at or over 4% in terms of inhibition? MET
